# Test system: IGROV1 ovarian
# METHOD DESCRIPTION: NCI-60 one-dose screen, 48 h
# STATED CONDITIONS: 10 µM unless noted
Compounds without any hit were thinned out: in the full panel of roughly 83,000, 20% have a hit. The source made the active and inactive calls. The calls were made as follows: active = growth percent below 10; inactive = the rest.
Answer with one of the outcomes given here: label 1 for active, label 0 for inactive

# count of solved cases: 2
> print(dat)
                                   compound  assigned.label
1  Cc1nc(Nc2ncc(C(=O)Nc3c(C)cccc3Cl)s2)cc(N2CCN(CCCNC(=O)COc3ccc(C4CCC(=O)NC4=O)cc3)CC2)n1 (stereo not given)         label 1
2  Cc1ccc(C(=O)CSc2nc3ccc(C)cc3c(=O)n2-c2ccc(F)cc2)cc1         label 0

q: Kindly provide the recorded test outcome for the following compound: COc1cccc(/C=C/C(=O)c2ccc(OC)c(S(N)(=O)=O)c2)c1
a: label 0

q: Also NS(=O)(=O)c1ccc(NNC(=O)CCC(=O)c2ccccc2)cc1 , if possible.
a: label 0

q: Also C#CCOc1ccc(/C=N/Nc2nc(-c3cc4cc(Br)ccc4oc3=O)cs2)cc1OC , if possible.
a: label 0

###

# System: HCT-15 colon
# METHOD DESCRIPTION: NCI-60 one-dose screen, 48 h
# STATED CONDITIONS: 10 µM unless noted
The panel holds about 83,000 compounds, 20% with a hit somewhere; the sample as a whole holds those more often. The source made the active and inactive calls. How the source made its calls: active means growth percent below 10; inactive means the rest.
Answer with one of the outcomes given here: TRUE = active, FALSE = inactive

# count of solved cases: 5
COMPOUND	ASSIGNED LABEL
Cc1nc(Nc2ccccn2)sc1C(=O)CC(SCC(=O)Nc1ccc(Cl)cc1)c1ccccc1F (stereo not drawn)	TRUE
CC1(C)CC[C@]2(C(=O)Nc3ccc(F)cc3)CC[C@]3(C)C(=CCC4[C@@]5(C)C[C@@H](O)[C@H](O)[C@@](C)(CO)C5CC[C@]43C)C2C1 (stereo partly drawn)	FALSE
O=C(c1ccc(Cl)cc1)c1ccc(OCCCN2CCN(c3ccncc3)CC2)cc1	TRUE
O=C1N/C(=N\c2nccs2)S/C1=C\C=C/c1ccccc1	FALSE
O=C(COc1ccc(NC(=O)Nc2ccccc2)cc1)N=Nc1c(O)[nH]c2ccc([N+](=O)[O-])cc12	FALSE

q: Kindly provide the recorded test outcome for the following compound: COC(OC)C1=C(C)OC(N)=C(C#N)C12C(=O)Nc1ccccc12 (stereo not drawn)
a: FALSE

q: Also NS(=O)(=O)c1ccc(-n2cc(-c3cccc(NC(=O)c4ccc(Cl)c(C(F)(F)F)c4)c3)nn2)cc1 , if possible.
a: FALSE

q: Also Cc1ccc(NC(=O)[C@]23CCC(C)(C)CC2C2=CCC4[C@@]5(C)C[C@@H](O)[C@H](O)[C@@](C)(CO)C5CC[C@@]4(C)[C@]2(C)CC3)cc1 (stereo partly drawn) , if possible.
a: FALSE

###

# Tested on: HCT-116 colon
# METHOD DESCRIPTION: NCI-60 one-dose screen, 48 h (100 = growth as untreated, 0 = no growth, -100 = all killed)
# STATED CONDITIONS: 10 µM unless noted
The panel holds about 83,000 compounds, 20% with a hit somewhere; the sample as a whole holds those more often.
QUANTITY: growth (%)
Note: unit % is implicit; provide only the numeric part.

Below, each entry is followed by its recorded growth result.
> print(dat)
                                   molecule  quantity  observed.value
1  COc1ccc2[nH]cc(-c3nnc(N)nc3-c3cn(C)c4ncc(Br)cc34)c2c1    growth            79.6
2  C=C1CC[C@@H]2[C@]3(C)COC(c4cn[nH]c4-c4ccc(Br)cc4)O[C@@H]3CC[C@@]2(C)[C@@H]1C/C=C1/C(=O)OCC1O (stereo not given in full)    growth           -93.5
3    O=C1N/C(=N\c2nccs2)S/C1=C\C=C/c1ccccc1    growth            12.1
4  CN(C)c1ccnc(NCCCSC(c2ccccc2)(c2ccccc2)c2ccccc2)c1    growth           -82.3

Please examine the following record next.
q: Give its growth value. Item: COc1ccc2c(c1)c(-c1cc3nc(-c4cn(C)c5ncc(Br)cc45)cc(N)n3n1)cn2C
a: -100
